- Test system: HL-60(TB) leukemia
- Protocol Description: NCI-60 one-dose screen, 48 h (100 = growth as untreated, 0 = no growth, -100 = all killed)
- Measurement Setup: 10 µM unless noted
Compounds without any hit were thinned out: in the full panel of roughly 83,000, 20% have a hit.
Reported Metric: growth (%)
Field: numeric (%). Do not append units.

Qu. State its growth: CCCCCC(C)(CC(=O)O)CC(=O)O
Ans. 90.5

Qu. Find the measured growth of O=C1C(Cl)=C(Cl)C(=O)c2c1nc1n2CCCC1 and report it.
Ans. 74.8

Qu. // fetch growth given entry ClC1c2ccccc2CCc2ccccc21
Ans. 122

Qu. Complete the entry with growth for COC(=O)OC1C(O[C@H]2C[C@H]3[C@@H]4CC=C5C[C@@H](O)CC[C@]5(C)[C@H]4CC[C@]3(C)[C@H]2[C@H](C)C(=O)CCC(C)C)OCC(O)C1OC1OCC(O)C(O)C1OC(=O)c1ccc(OC)cc1 (some centres undefined)
Ans. -22.3

Qu. Give reported growth value for CC(=O)Nc1ccc(CC#N)cc1Br
Ans. 123

Qu. Read off the recorded growth for C#CCOC(=O)[C@]1(C)CCC[C@]2(C)[C@H]3C[C@H]4C(C(C)C)=C[C@]3(CC[C@H]21)[C@@H]1C(=O)CCC(=O)[C@@H]14
Ans. 64.7

Qu. Supply growth value. Item: Cc1cc(C)c2c(c1)N(C)c1ncnc(-n3c(C)nc4cc(C)ccc43)c1CC2C (centres undefined)
Ans. 1.64

Qu. Name the recorded growth of the molecule listed here: CCN(CC)CCCC(Nc1c2ccc(Cl)cc2nc2ccc(OC)cc12)c1ccc(Cl)cc1 (centres undefined)
Ans. -16.2

Qu. Entry O=C(CCN1CCCC1)Nc1ccc2c(Nc3ccc(Br)cc3)c3ccccc3nc2c1 needs its growth filled in; supply it.
Ans. -54.6
